pIC50: −log10 of the molar value.
Hi! I'm sharing some pIC50 results obtained with Acetylcholinesterase (Electrophorus electricus).
Sequence (O42275 whole entry): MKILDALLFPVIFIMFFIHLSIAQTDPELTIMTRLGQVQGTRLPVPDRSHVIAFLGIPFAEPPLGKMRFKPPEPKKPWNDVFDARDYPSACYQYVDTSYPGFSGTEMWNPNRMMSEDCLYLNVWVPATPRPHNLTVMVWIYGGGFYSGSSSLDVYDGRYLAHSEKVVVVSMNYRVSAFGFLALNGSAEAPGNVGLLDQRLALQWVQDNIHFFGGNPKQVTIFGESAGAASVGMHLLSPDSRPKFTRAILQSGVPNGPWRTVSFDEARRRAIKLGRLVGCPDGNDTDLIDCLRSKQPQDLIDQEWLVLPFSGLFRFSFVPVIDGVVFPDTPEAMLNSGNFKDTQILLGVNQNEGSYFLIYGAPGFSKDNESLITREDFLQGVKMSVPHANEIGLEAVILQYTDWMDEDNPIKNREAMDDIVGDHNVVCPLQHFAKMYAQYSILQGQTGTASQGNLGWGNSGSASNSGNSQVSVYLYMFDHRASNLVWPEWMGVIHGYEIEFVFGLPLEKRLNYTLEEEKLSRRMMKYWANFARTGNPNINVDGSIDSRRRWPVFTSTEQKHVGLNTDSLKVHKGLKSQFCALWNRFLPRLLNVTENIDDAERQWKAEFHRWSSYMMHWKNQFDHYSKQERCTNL
endpoint.name: pIC50

> print(dat)
                                   compound  endpoint.name  endpoint.result
1  CCOP(=O)(OCC)OC(CCC#N)c1ccc(OC)cc1 (stereo not drawn)          pIC50             4.27
2  COc1ccc(C(CCC#N)OP(=O)(OC)OC)cc1 (stereo not drawn)          pIC50             4.43
3  CCOP(=O)(OCC)OC(CCC#N)c1ccc(C)cc1 (stereo not drawn)          pIC50             5.02
4  CCOP(=O)(OCC)OC(CCC#N)c1ccccc1 (stereo not drawn)          pIC50             4.47
5  CCOP(=O)(OCC)OC(c1ccccc1)C(C)CC#N (stereo not drawn)          pIC50             4.45
6  COP(=O)(OC)OC(CCC#N)c1ccc(C)cc1 (stereo not drawn)          pIC50             4.76
7  COP(=O)(OC)OC(c1ccccc1)C(C)CC#N (stereo not drawn)          pIC50             4.53
8  COP(=O)(OC)OC(CCC#N)c1ccccc1 (stereo not drawn)          pIC50             4.50
